meta.source: paper PMC3569412

SYSTEM UNDER TEST: h kallikrein 7 (Homo sapiens)
Sequence (P49862 30-253): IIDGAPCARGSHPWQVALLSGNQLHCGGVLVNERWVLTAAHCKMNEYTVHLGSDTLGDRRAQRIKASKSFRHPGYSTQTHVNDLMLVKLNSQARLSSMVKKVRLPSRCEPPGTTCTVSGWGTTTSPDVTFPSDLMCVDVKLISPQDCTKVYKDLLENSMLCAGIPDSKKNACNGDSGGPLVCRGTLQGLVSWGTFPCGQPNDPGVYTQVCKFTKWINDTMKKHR

{"COMPOUND SMILES": "CN(C)C(=O)COC(=O)Cc1ccc(OC(=O)c2ccc(NC(=N)N)cc2)cc1", "SYSTEM UNDER TEST": "h kallikrein 7 (Homo sapiens)", "IC50 / µM": 41.5}

* * *

SYSTEM UNDER TEST: h factor XIa (Homo sapiens)
Sequence (P03951 388-625 limits assumed): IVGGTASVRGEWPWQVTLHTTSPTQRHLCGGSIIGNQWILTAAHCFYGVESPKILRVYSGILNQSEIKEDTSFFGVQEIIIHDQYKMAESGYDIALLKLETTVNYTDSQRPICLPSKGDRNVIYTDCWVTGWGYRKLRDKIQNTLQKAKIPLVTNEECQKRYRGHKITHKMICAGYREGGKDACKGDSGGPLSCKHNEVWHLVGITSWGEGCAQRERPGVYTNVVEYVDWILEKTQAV

{"COMPOUND": "CN(C)C(=O)COC(=O)Cc1ccc(OC(=O)c2ccc(NC(=N)N)cc2)cc1 [Camostat]", "VALUE UNIT": "nM", "IC50": 8}

* * *

SYSTEM UNDER TEST: h factor XIIa (Homo sapiens)
Sequence (P00748 373-615 limits assumed): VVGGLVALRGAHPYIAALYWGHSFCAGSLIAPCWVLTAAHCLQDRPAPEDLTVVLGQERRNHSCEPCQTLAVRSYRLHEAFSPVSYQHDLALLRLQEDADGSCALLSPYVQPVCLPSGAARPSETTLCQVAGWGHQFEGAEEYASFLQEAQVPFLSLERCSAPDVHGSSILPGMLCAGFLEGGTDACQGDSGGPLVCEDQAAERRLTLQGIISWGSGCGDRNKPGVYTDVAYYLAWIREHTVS
pIC50: −log10 of the molar value.

{"COMPOUND": "CN(C)C(=O)COC(=O)Cc1ccc(OC(=O)c2ccc(NC(=N)N)cc2)cc1 [Camostat]", "pIC50": 5.10}
